# ASSAY_TEXT: Effect of food on plasma pharmacokinetics after single oral dose of SF2a/b (Example 2)
# Format: in vivo, human
# RUN_PARAMETERS: both sexes, human, plasma, oral, 800 mg, 800 mg SF2b, standardized breakfast; linear mixed effects model (Table 5A); read-out: AUClast, Geometric Mean Treatment E
VALUE_KIND: AUC(0-t) (µg·h/mL)
Please respond with the number in µg·h/mL and leave the unit unwritten.

## Input I have this compound here, COc1cc(NC(C(=O)c2c[nH]c3ccc(OC(F)(F)F)cc23)c2ccc(Cl)cc2OC)cc(S(C)(=O)=O)c1 (stereo not shown) , and I need its recorded AUC(0-t).
## Output 337
